Entries and their measured OD650 follow.
target or test system: T1, Human B7-H4 protein antigen (coated on ELISA plates) (human, UniProt Q7Z7D3 25-259, limits assumed)
T1 construct: also called B7-H4 antigen; human B7-H4 antigen
T1 sequence: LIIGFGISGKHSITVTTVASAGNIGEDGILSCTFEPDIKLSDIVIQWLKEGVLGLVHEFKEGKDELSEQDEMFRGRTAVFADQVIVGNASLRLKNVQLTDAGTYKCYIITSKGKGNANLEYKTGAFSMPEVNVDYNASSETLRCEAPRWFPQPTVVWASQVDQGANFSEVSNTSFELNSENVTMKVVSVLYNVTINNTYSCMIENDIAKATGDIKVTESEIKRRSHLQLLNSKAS
assay text: ELISA, conditioned medium on coated human B7-H4 antigen, anti-Fc-HRP/TMB
value kind: OD650

- binder: "recombinant chimeric anti-B7-H4 antibody 2D1 (2D1 heavy chain / 2D1 light chain, human IgG4 S228P) (antibody, V domains shown, tested as CHO conditioned medium; also called 2D1 HC + 2D1 LC) VH: EVQLVESGGGLVKPGGSLKLSCAASGFTFNSHGMSWVRQTPEKRLDWVATISDGGTYTYYPVNVKGRFTISRDNAKNNLYLQMSHLKSEDTAMYYCARDGGGGAYWGQGTLVTVSA VL: DVVMTQTPLSLPVSLGDQASISCRSSHSLVHSNGNTYLHWYLQKPGQSPNLLIYIVSNRFSGVPDRFSGSGSGTDFTLKISRVEAEDLGVYFCSQSTHVPPTFGAGTKLELKR"
  value kind: "OD650"
  readout value: "1.12 OD650"
- binder: "recombinant antibody of 2D1 heavy chain and 2H9 light chain (human IgG4 S228P) (antibody, V domains shown, Mixed-chain combination tested as CHO conditioned medium; also called 2D1 HC + 2H9 LC) VH: EVQLVESGGGLVKPGGSLKLSCAASGFTFNSHGMSWVRQTPEKRLDWVATISDGGTYTYYPVNVKGRFTISRDNAKNNLYLQMSHLKSEDTAMYYCARDGGGGAYWGQGTLVTVSA VL: DIVLTQSPASLAVSLGQRATISCRASESIDNYGISFMHWYQQKPGQPPKLLIYRASNLESGIPARFSGSGSRTDFTLTINPVETDDVATYFCQQSDEGRTFGGGTKLEIKR"
  value kind: "OD650"
  readout value: "0.06 OD650"
- binder: "recombinant chimeric anti-B7-H4 antibody 2H9 (2H9 heavy chain / 2H9 light chain, human IgG4 S228P) (antibody, V domains shown, tested as CHO conditioned medium; also called 2H9 HC + 2H9 LC) VH: EVQLVESGGNLVKPGGSLKLSCAASGFTFSNSAMSWVRQTPEKRLEWVATISDGGRYTYYPDNVKGRFTISRDNAKNNLYLQMSHLKSEDTALYYCARDRPHWYFDVWGTGATVTVSS VL: DIVLTQSPASLAVSLGQRATISCRASESIDNYGISFMHWYQQKPGQPPKLLIYRASNLESGIPARFSGSGSRTDFTLTINPVETDDVATYFCQQSDEGRTFGGGTKLEIKR"
  value kind: "OD650"
  readout value: "1.15 OD650"
- binder: "recombinant antibody of 2H9 heavy chain and 2D1 light chain (human IgG4 S228P) (antibody, V domains shown, Mixed-chain combination tested as CHO conditioned medium; also called 2H9 HC + 2D1 LC) VH: EVQLVESGGNLVKPGGSLKLSCAASGFTFSNSAMSWVRQTPEKRLEWVATISDGGRYTYYPDNVKGRFTISRDNAKNNLYLQMSHLKSEDTALYYCARDRPHWYFDVWGTGATVTVSS VL: DVVMTQTPLSLPVSLGDQASISCRSSHSLVHSNGNTYLHWYLQKPGQSPNLLIYIVSNRFSGVPDRFSGSGSGTDFTLKISRVEAEDLGVYFCSQSTHVPPTFGAGTKLELKR"
  value kind: "OD650"
  readout value: "0.02 OD650"
